For each entry below, report its IC50 value.
- STUDY TARGET: EGFR wild type (Homo sapiens, UniProt P00533)
- Construct: purchased Carna Bio
- Sequence (P00533 25-1210): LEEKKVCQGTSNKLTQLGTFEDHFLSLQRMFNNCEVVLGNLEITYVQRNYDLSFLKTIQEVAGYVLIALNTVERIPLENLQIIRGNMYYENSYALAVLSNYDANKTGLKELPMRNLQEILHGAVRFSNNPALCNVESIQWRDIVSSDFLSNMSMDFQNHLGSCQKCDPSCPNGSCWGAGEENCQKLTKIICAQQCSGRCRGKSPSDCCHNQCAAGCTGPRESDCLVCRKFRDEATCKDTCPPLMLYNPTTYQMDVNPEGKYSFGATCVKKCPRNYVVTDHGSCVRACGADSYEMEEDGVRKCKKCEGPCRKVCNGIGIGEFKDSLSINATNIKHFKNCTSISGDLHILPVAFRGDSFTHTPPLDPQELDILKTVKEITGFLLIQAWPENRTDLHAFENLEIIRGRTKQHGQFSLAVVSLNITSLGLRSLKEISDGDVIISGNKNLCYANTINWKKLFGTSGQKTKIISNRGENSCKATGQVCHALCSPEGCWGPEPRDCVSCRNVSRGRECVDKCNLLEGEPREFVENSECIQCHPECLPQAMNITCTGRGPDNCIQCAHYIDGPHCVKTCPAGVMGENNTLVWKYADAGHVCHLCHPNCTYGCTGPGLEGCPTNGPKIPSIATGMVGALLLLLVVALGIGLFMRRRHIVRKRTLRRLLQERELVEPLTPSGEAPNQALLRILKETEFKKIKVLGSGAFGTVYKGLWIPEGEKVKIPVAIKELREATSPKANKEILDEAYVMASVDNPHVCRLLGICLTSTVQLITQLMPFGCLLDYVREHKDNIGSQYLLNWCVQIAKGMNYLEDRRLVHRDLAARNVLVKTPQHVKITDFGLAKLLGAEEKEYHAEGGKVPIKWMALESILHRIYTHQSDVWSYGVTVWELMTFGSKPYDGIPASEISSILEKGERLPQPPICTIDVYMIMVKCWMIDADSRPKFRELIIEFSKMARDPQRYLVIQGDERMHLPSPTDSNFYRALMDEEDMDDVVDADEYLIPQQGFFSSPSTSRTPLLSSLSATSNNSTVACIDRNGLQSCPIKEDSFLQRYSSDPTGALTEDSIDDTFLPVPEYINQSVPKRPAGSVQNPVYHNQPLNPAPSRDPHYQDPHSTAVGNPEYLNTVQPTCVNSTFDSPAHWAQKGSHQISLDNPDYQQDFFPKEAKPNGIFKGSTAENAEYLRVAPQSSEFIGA
- MEASUREMENT DESCRIPTION: Inhibition of EGFR wild type biochemical enzymatic activity (HTRF)
- ASSAY CONDITIONS: EGFR WT, 1 mM ATP, 1 h, room temperature, read-out: IC50 (nM) @WT

The following molecules have reported results that may help.
MOLECULE	QUANTITY KIND	RECORDED VALUE
Cn1ncc2c1OCCN1CC3CCC(CC3)(C1)n1c(nc3ccc(N4CCN(C5CC5)CC4)cc31)NC(=O)c1cc-2c(=O)n(C)c1	IC50	> 5000 nM
Cn1ncc2c1OCCN1CC3CCC(C3)(C1)n1c(nc3ccc(N4CCC(N5CCOCC5)C4)cc31)NC(=O)c1cc-2c(=O)n(C)c1 (single isomer, unassigned) [Example A104A]	IC50	> 5000 nM

Now look at this one.
Qu. Given the entry CN1CCC2(CCN(c3ccc4nc5n(c4c3)C34CCC(CN(CCOc6c(cnn6C)-c6cc(cn(C)c6=O)C(=O)N5)C3)C4)C2)C1 (single isomer, unassigned) [Example A81A] , report its measured IC50.
Ans. > 5000 nM

---

- Tested on: PC-9
- MEASUREMENT DESCRIPTION: Cell proliferation assay, PC-9 cells (CellTiter-Glo, 72 hours)
- Format: cell-based
- ASSAY CONDITIONS: Homo sapiens, PC-9, 72 h, PC9 cells, CellTiter-Glo, read-out: PC9 GI50
For each of the compounds below, state its GI50.
One number for each entry, in nM.

Below: 6 compounds and their reported GI50.
COMPOUND	STUDY TARGET	QUANTITY KIND	RECORDED VALUE
C[C@@H]1CCCOc2c(cnn2C)-c2cc(cn(C)c2=O)C(=O)Nc2nc3ccc4c(c3n2C1)CCN(C)C4 [Example A103]	PC-9	GI50	32
C[C@@H]1CCCOc2c(cnn2C2CC2)-c2cc(cn(C)c2=O)C(=O)Nc2nc3ccc(N4CCN(C)CC4)cc3n2C1 [Example A22]	PC-9	GI50	87
C[C@@H]1CCCOc2c(cnn2C)-c2cc(cn(C)c2=O)C(=O)Nc2nc3ccc(N4CCC5(CC4)CCN5C)cc3n2C1 [Example A52]	PC-9	GI50	15.4
C[C@@H]1CCCOc2c(cnn2C)-c2cc(cn(C)c2=O)C(=O)Nc2nc3ccc(N4CCC(N5CCN(C)CC5)CC4)cc3n2C1 [Example A29]	PC-9	GI50	7.1
C[C@@H]1CCCOc2c(cnn2C)-c2cc(cn(C)c2=O)C(=O)Nc2nc3ccc(N4CCN(C(=O)OC(C)(C)C)CC4)cc3n2C1 [Example A54]	PC-9	GI50	245
CCN1CCOc2c(cnn2C)-c2cc(cn(C)c2=O)C(=O)Nc2nc3ccccc3n2C(C)C1 (stereo not shown) [Example A6]	PC-9	GI50	403

Let us examine a further case.
Qu. Recorded GI50 of C[C@@H]1CCCOc2c(cnn2C)-c2cc(cn(C)c2=O)C(=O)Nc2nc3ccc(N4CC5CN(C)CC5C4)cc3n2C1 (stereo partly shown) [Example A30] , please.
Ans. 17

---

- STUDY TARGET: EGFR Exon19Del (Homo sapiens, UniProt P00533, DEL746-750)
- Construct: purchased Carna Bio
- Sequence (P00533 with tags, fused parts or gaps DEL746-750 limits assumed): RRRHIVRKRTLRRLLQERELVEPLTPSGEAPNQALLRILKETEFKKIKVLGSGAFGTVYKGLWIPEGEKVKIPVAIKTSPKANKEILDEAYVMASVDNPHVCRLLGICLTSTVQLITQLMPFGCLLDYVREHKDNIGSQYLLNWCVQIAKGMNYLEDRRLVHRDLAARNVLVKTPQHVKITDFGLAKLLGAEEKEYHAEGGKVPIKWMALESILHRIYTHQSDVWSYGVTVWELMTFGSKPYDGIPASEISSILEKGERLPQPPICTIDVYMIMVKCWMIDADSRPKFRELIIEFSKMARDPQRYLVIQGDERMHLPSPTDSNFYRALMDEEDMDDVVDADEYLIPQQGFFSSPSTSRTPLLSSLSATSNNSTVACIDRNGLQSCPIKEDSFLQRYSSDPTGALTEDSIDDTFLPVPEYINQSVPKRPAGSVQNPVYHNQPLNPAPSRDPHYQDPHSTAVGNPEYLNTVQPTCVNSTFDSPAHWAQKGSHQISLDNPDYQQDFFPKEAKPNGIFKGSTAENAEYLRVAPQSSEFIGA
- MEASUREMENT DESCRIPTION: Inhibition of EGFR Exon19Del biochemical enzymatic activity (HTRF)
- ASSAY CONDITIONS: EGFR Del19, 1 mM ATP, 1 h, room temperature, read-out: IC50 @Del19
I'd be grateful if you could share measured IC50 for these entries.
One number for each entry, in nM.

Recorded IC50, per entry:
COMPOUND	IC50 [nM]
Cn1ncc2c1OCCN1CC3(CCCC1C3)n1c(nc3ccc(N4CCOCC4)cc31)NC(=O)c1cc-2c(=O)n(C)c1 (stereo not shown) [Example A9]	264
Cn1ncc2c1OCCN1CC3CCC(C3)(C1)n1c(nc3ccc(N4CCC(N5CC(F)C5)C4)cc31)NC(=O)c1cc-2c(=O)n(C)c1 (single isomer, unassigned) [Example A94B]	5.2
C[C@@H]1CCCOc2c(cnn2CC(F)(F)F)-c2cc(cn(C)c2=O)C(=O)Nc2nc3ccc(N4CCN(C)CC4)cc3n2C1 [Example A20]	86
Cn1ncc2c1OCCN1CC(CCC1(C)C)n1c(nc3ccc(N4CCOCC4)cc31)NC(=O)c1cc-2c(=O)n(C)c1 (stereo not shown) [Example A12]	144
C[C@@H]1CCCOc2c(cnn2C)-c2cc(cn(C)c2=O)C(=O)Nc2nc3ccc(N4CCN(CC(F)(F)F)CC4)cc3n2C1 [Example A53]	15
CN(C)[C@@H]1CCN(c2ccc3nc4n(c3c2)C23CCC(CC2)CN(CCOc2c(cnn2C)-c2cc(cn(C)c2=O)C(=O)N4)C3)C1 [Example A121]	25
CCN1CCN(c2ccc3nc4n(c3c2)C23CCC(CN(CCOc5c(cnn5C)-c5cc(cn(C)c5=O)C(=O)N4)C2)C3)CC1 (single isomer, unassigned) [Example A107B]	1.8
CN(C)CCC1CN(c2ccc3nc4n(c3c2)C23CCC(CN(CCOc5c(cnn5C)-c5cc(cn(C)c5=O)C(=O)N4)C2)C3)C1 (single isomer, unassigned) [Example A95A]	864
Cn1ncc2c1OCCN1CC3CCC(C3)(C1)n1c(nc3ccc(N4CCC(N5CC(F)C5)CC4)cc31)NC(=O)c1cc-2c(=O)n(C)c1 (single isomer, unassigned) [Example A87B]	2.8

Qu. Which IC50 value belongs to CN1CCN(c2ccc3nc4n(c3c2)CC2(CCCOc3c(cnn3C)-c3cc(cn(C)c3=O)C(=O)N4)CC2)CC1 [Example A18] ?
Ans. 54
